Data credit: patent US20250171776A1

Provide the reported Percentage of GFP Positive Cells at 72 hours (30 μM) of each item.
Tested on: HELA-654 cells
Assay: Hela-654 eGFP assay (incucyte imaging, GFP positive cells, 72 h)
Format: cell-based
Details: Iph scan, 30 μM of compound, 72 hours
Where no end group is shown, it is not given here. [ ]: non-standard residue; d: D form. Api = NC1(C(=O)O)CCNCC1; Iph = iodophenylalanine
Output should be the measured figure followed by the unit it is expressed in.

Form: substance = Iph-Gln-Lys-Thr-Ser-Iph-Gly-Arg-Gly-Pip-Lys-Trp-Lys-Lys ([Iph]QKTS[Iph]GRG[Api]KWKK; also: PMO conjugate) [PMO-CXP1Q] ; Percentage of GFP Positive Cells at 72 hours (30 μM) = 85%

The measured Percentage of GFP Positive Cells at 72 hours (30 μM) associated with Lys-Gln-Lys-Thr-Ser-Iph-Gly-Arg-Gly-Pip-Lys-Trp-Lys-Iph-Lys-Trp-Lys-Lys (KQKTS[Iph]GRG[Api]KWK[Iph]KWKK; not fully specified (C-terminus); printed as Lys-Gln-Lys-Thr-Ser-Iph-Gly-Arg-Gly-Pip-Lys-Trp-Lys-Iph-Lys-Trp-Lys-Lys; also: PMO conjugate) [PMO-CXP1W] reads 94.11%

Query Lys-Gln-Lys-Thr-Ser-Iph-Gly-Iph-Gly-Pip-Lys-Trp-Lys-Lys (KQKTS[Iph]G[Iph]G[Api]KWKK; not fully specified (C-terminus); printed as Lys-Gln-Lys-Thr-Ser-Iph-Gly-Iph-Gly-Pip-Lys-Trp-Lys-Lys; also: PMO conjugate) [PMO-CXP1S] yields Percentage of GFP Positive Cells at 72 hours (30 μM) of 82.3%

Lab note: measured Percentage of GFP Positive Cells at 72 hours (30 μM) of Lys-Gln-Iph-Thr-Ser-Iph-Gly-Arg-Gly-Pip-Lys-Trp-Lys-Lys (KQ[Iph]TS[Iph]GRG[Api]KWKK; also: PMO conjugate) [PMO-CXP1R] was 87.6%
